Tested on: HEPG2
Assay: Euclidean distance of Cell Painting phenotypic profile (signed KS, 77 features) to DMSO centroid (dimensionless distance); 5 or 10 uM (library dependent); higher = stronger phenotypic change vs DMSO (phenoactivity)
Details: 48 h
Counter-ions that a name gives are not always drawn.
Field: Euclidean distance. Provide a value for each of the compounds that follow.
Give bare numbers.

compound	measured on	Euclidean distance
CC1(C)OC[C@@H](COC(=O)CCc2ccc(OC[C@@H](O)CNCCNC(=O)N3CCOCC3)cc2)O1 [Landiolol hydrochloride]	HEPG2	0.692
Clc1ccc(C(Cn2ccnc2)OCc2c(Cl)cccc2Cl)c(Cl)c1 (stereo not drawn) [Isoconazole nitrate]	HEPG2	0.714
C#C[C@]1(OC(C)=O)CC[C@H]2[C@@H]3CCC4=C[C@@H](OC(C)=O)CC[C@@H]4[C@H]3CC[C@@]21C [Ethynodiol diacetate]	HEPG2	0.735
CC1(C)O[C@H]2CC(=O)OC[C@]23[C@H]2CC[C@@]4(C)[C@H](c5ccoc5)OC(=O)[C@H]5O[C@]54[C@]2(C)C(=O)C[C@@H]13	HEPG2	1.05
CC/C=C\C/C=C\C/C=C\C/C=C\C/C=C\CCCC(=O)O	HEPG2	0.664

Field: Euclidean distance. Fill in for each record below.
1. CC[C@@H](CO)NCCN[C@@H](CC)CO [Ethambutol HCl]
2. CN1CCCN=C1/C=C/c1cccs1 [Pyrantel Pamoate]
3. COc1ccc2c(Oc3ccc(NC(=O)c4c(C)n(CC(C)(C)O)n(-c5ccccc5)c4=O)nc3)ccnc2c1
4. COc1ccccc1N1CCN(CC(O)COc2cccc3ccccc23)CC1 (stereo not drawn)
5. Cn1cc(-c2nc(N[C@@H]3CCCC[C@@H]3N)c(F)c3c2C(=O)NC3)cn1
6. CN1CCc2c(c3ccccc3n2Cc2ccccc2)C1 [Mebhydrolin napadisylate]
7. CCC(CC)CC1(C(=O)Nc2ccccc2SC(=O)C(C)C)CCCCC1
8. Cc1ncc([N+](=O)[O-])n1CCOC(=O)c1ccccc1 [Metronidazole Benzoate]

1. 1.17
2. 0.805
3. 0.897
4. 0.934
5. 1.85
6. 1.31
7. 0.428
8. 0.486

---

System: FB
Test: Euclidean distance of Cell Painting phenotypic profile (signed KS, 77 features) to DMSO centroid (dimensionless distance); 5 or 10 uM (library dependent); higher = stronger phenotypic change vs DMSO (phenoactivity)
Conditions: 48 h
Counter-ions that a name gives are not always drawn.
Given measured Euclidean distance, output true if it is greater than or equal to 1 and false if not.

Before answering, review these 3 worked examples.
compound	measured on	assigned class
CCN(CC)CCOC(=O)c1ccc(N)cc1 [Procaine HCl]	FB	false
CC[C@H]1OC(=O)[C@H](C)[C@@H](O[C@H]2C[C@@](C)(OC)[C@@H](O)[C@H](C)O2)[C@H](C)[C@@H](O[C@@H]2O[C@H](C)C[C@H](N(C)C)[C@H]2O)[C@](C)(OC)C[C@@H](C)C(=O)[C@H](C)[C@@H](O)[C@]1(C)O	FB	false
CC(C)[C@H]1CC[C@H](C(=O)N[C@H](Cc2ccccc2)C(=O)O)CC1 [Nateglinide]	FB	false

Euclidean distance >= 1 for COC(=O)N[C@H](C(=O)N1CCC[C@H]1C(=O)Nc1ccc([C@@H]2CC[C@@H](c3ccc(NC(=O)[C@@H]4CCCN4C(=O)[C@@H](NC(=O)OC)C(C)C)cc3)N2c2ccc(C(C)(C)C)cc2)cc1)C(C)C ? true

---

Test system: HEPG2
Experiment: Euclidean distance of Cell Painting phenotypic profile (signed KS, 77 features) to DMSO centroid (dimensionless distance); 5 or 10 uM (library dependent); higher = stronger phenotypic change vs DMSO (phenoactivity)
Details: 48 h
Counter-ions that a name gives are not always drawn.
Binary call on Euclidean distance: true (1) from 0.9 upward, false (0) beneath that.

molecule	assigned class
C=C[C@@H]1C[C@]1(NC(=O)[C@@H]1C[C@@H]2CN1C(=O)[C@H](C(C)(C)C)NC(=O)O[C@@H]1C[C@H]1CCCCCc1nc3ccc(OC)cc3nc1O2)C(=O)NS(=O)(=O)C1CC1	true (1)
CCN(CC)Cc1cc(Nc2ccnc3cc(Cl)ccc23)ccc1O [Amodiaquine]	true (1)

Reported Euclidean distance at or above 0.9? N=C(N)NC(=O)c1nc(Cl)c(N)nc1N [Amiloride HCl] true (1)

// next record CN(C)CCC=C1c2ccccc2C=Cc2ccccc21 [Cyclobenzaprine HCl] true (1)

Okay, and C#C[C@]1(O)CC[C@H]2[C@@H]3CCC4=CC(=O)CC[C@@H]4[C@H]3CC[C@@]21C ? false (0)

Try this molecule too: O=C(c1ccc(Nc2nccc(-c3cc4ccccc4s3)n2)cc1)N1CCC(N2CCCC2)CC1 true (1)

Please do the same for CC(C)C[C@H](NC(=O)CNC(=O)[C@H](Cc1ccc(O)cc1)NC(=O)[C@H](CO)NC(=O)[C@H](Cc1c[nH]c2ccccc12)NC(=O)[C@H](Cc1cnc[nH]1)NC(=O)[C@@H]1CCC(=O)N1)C(=O)N[C@@H](CCCNC(=N)N)C(=O)N1CCC[C@H]1C(=O)NCC(N)=O [Gonadorelin Acetate] as well. false (0)

---

Give measured Euclidean distance for each item. Keep answers brief.
Test system: DU145
Test: Euclidean distance of Cell Painting phenotypic profile (signed KS, 77 features) to DMSO centroid (dimensionless distance); 5 or 10 uM (library dependent); higher = stronger phenotypic change vs DMSO (phenoactivity)
Details: 48 h
Counter-ions that a name gives are not always drawn.
Numbers only.

Sample answers from the record:
compound	Euclidean distance
CC[C@H]1OC(=O)[C@H](C)[C@@H](O[C@H]2C[C@@](C)(OC)[C@@H](O)[C@H](C)O2)[C@H](C)[C@@H](O[C@@H]2O[C@H](C)C[C@H](N(C)C)[C@H]2O)[C@](C)(O)C[C@@H](C)C(=O)[C@H](C)[C@@H](O)[C@]1(C)O [Erythromycin thiocyanate]	0.991
O=C1OC(CN2CCOCC2)CN1/N=C/c1ccc([N+](=O)[O-])o1 (stereo not drawn) [Furaltadone HCl]	1.24
Nc1ccn([C@@H]2O[C@H](CO)[C@@H](O)[C@@H]2O)c(=O)n1 [Cytarabine]	2.54
NC(=O)c1ccc(N(C(N)=O)c2c(F)cccc2F)nc1-c1ccc(F)cc1F	1.41
CNC[C@H](O)c1cccc(O)c1 [Phenylephrine HCl]	0.788

Report Euclidean distance for each item below.
1. Oc1c(Br)cc(Br)c2cccnc12 [Broxyquinoline]
2. NC(=O)c1ncn([C@@H]2O[C@H](CO)[C@@H](O)[C@H]2O)n1 [Ribavirin]
3. CCOC(CN1CCN(CC(C)C(=O)c2ccccc2)CC1)c1ccccc1 (stereo not drawn) [Eprazinone 2HCl]
4. CCCCC(F)(F)[C@@]1(O)CC[C@H]2[C@@H](CC(=O)[C@@H]2CCCCCCC(=O)O)O1 [Lubiprostone]
5. CCC(=O)Nc1cccc(Oc2nc(Nc3ccc(N4CCN(C)CC4)cc3OC)ncc2Cl)c1
6. O=c1[nH]cnc2nc[nH]c12 [Hypoxanthine]
7. CN(C)Cc1cccc(N=C(c2ccccc2)c2c(O)[nH]c3cc(C(=O)N(C)C)ccc23)c1
8. CCCCNc1cc(C(=O)O)cc(S(N)(=O)=O)c1Oc1ccccc1 [Bumetanide]

1. 1.01
2. 0.599
3. 1.2
4. 1.21
5. 0.903
6. 1.16
7. 1.08
8. 1.04

Okay, here is my list. What is Euclidean distance for each of these?
1. CC1(C)S[C@@H]2[C@H](NC(=O)[C@H](N)c3ccccc3)C(=O)N2[C@H]1C(=O)OCOC(=O)[C@@H]1N2C(=O)C[C@H]2S(=O)(=O)C1(C)C [Sultamicillin Tosylate]
2. CCN[C@@H]1C[C@H](N)[C@@H](O[C@H]2OC(CN)=CC[C@H]2N)[C@H](O)[C@H]1O[C@H]1OC[C@](C)(O)[C@H](NC)[C@H]1O [Netilmicin Sulfate]
3. O=C(O)c1ccccc1O [Salicylic acid]

[0.926, 1.18, 0.898]

Parameters: items (list). Returns: Euclidean distance for each item.
1. C[C@@H](O)[C@@H]1NC(=O)[C@H](CCCCN)NC(=O)[C@@H](Cc2c[nH]c3ccccc23)NC(=O)[C@H](Cc2ccccc2)NC(=O)[C@@H](NC(=O)[C@H](N)Cc2ccccc2)CSSC[C@@H](C(=O)N[C@H](CO)[C@@H](C)O)NC1=O [Octreotide Acetate]
2. CC1=C(C(=O)OC2CCCCC2)C(c2ccc([N+](=O)[O-])cc2)C2=C(CC(C)(C)CC2=O)N1 (stereo not drawn)

1.08
1.52

---

Test system: FB
Experiment: Euclidean distance of Cell Painting phenotypic profile (signed KS, 77 features) to DMSO centroid (dimensionless distance); 5 or 10 uM (library dependent); higher = stronger phenotypic change vs DMSO (phenoactivity)
Conditions: 48 h
quantity measured: Euclidean distance
Numbers only.

Please review the following examples before continuing.
compound	quantity measured	result
CCOC(=O)[N-]c1c[n+](N2CCOCC2)no1	Euclidean distance	0.842
Cc1[nH]c2ccccc2c1CCNC(=O)c1cccs1	Euclidean distance	0.779

Attention now turns to another entry.
Enter reported Euclidean distance observed with FB for CCCC(C)NC(=O)c1ccc(Cl)c(Cl)c1 (stereo not drawn) 1.24
